Assay: Phase I study CXR1002-001: plasma pharmacokinetics (LC-MS/MS)
Format: in vivo, human
Conditions: human, plasma, oral, 950 mg, Patient 030, 950 mg, person, plasma, 24 hr (Day 2); read-out: Concentration
reported.property: concentration at 24 h (µM)
I only need the number, in µM, no unit after it.

Request: Name the recorded concentration at 24 h for O=C(O)C(F)(F)C(F)(F)C(F)(F)C(F)(F)C(F)(F)C(F)(F)C(F)(F)F [CXR1002] .
Response: 214

----------
Tested on: PC3
Assay: ATP depletion cytotoxicity assay 48 hr
Type: cell-based, human
Details: read-out: IC50 1-4 (independent replicates)
reported.property: IC50 (µM)
Respond numerically; units are µM and should not be typed.

Request: # query: IC50 | item O=C(O)C(F)(F)C(F)(F)C(F)(F)C(F)(F)C(F)(F)C(F)(F)C(F)(F)F [CXR1002] | system: PC3
Response: 625
